target_or_system: Recombinant SARS-CoV-2 3CL Protease (Severe acute respiratory syndrome coronavirus 2, UniProt P0DTD1)
Construct: Recombinant SARS-CoV-2 3CL Protease; purchased
assay_summary: Inhibitory activity test on SARS-CoV-2 3CL protease (Test Example 2-1)
Assay type: biochemical
measurement_setup: 8 µM substrate, 6 nM or 0.6 nM enzyme, 3 to 5 hours
readout_label: IC50 (pM)
The response must be a number in pM with no trailing unit.

Sample C#CCn1c(N2CC3(C2)CC(F)(F)C3)c(-c2ccc(F)c(Cl)c2)c(=O)n(-c2cncc(Cl)c2)c1=O [Compound II-1] — what was its IC50?
680

* * *

Test system: SARS-CoV-2
assay_summary: Inhibitory activity of cytopathic effect (CPE) in VeroE6/TMPRSS2 cells (Test Example 3)
Type: cell-based
measurement_setup: Severe acute respiratory syndrome coronavirus 2, VeroE6/TMPRSS2, Omicron XBB. 1, strain TY41-795
readout_label: EC50 (nM)
The response must be a number in nM with no trailing unit.

Sample "N#CCn1c(N2CC3(C2)CC(F)(F)C3)c(-c2ccc(F)c(Cl)c2)c(=O)n(-c2cncc(Cl)c2)c1=O" — what was its EC50?
5.11

* * *

Test system: SARS-CoV-2
assay_summary: Inhibitory activity of cytopathic effect (CPE) in VeroE6/TMPRSS2 cells (Test Example 3)
Type: cell-based
measurement_setup: Severe acute respiratory syndrome coronavirus 2, VeroE6/TMPRSS2, Omicron XBB. 1. 9. 1, strain TY41-951
readout_label: EC50
Please give the number followed by its unit.

Sample N#CCn1c(N2CC3(C2)CC(F)(F)C3)c(-c2ccc(F)c(Cl)c2)c(=O)n(-c2cncc(Cl)c2)c1=O [Compound I-1] — what was its EC50?
12.6 nM

* * *

assay_summary: Cytotoxicity in MRC-5 cells in the absence of virus (Test Example 5)
Type: cell-based
measurement_setup: human
readout_label: CC50 at 72 h

Sample "N#CCn1c(N2CC3(C2)CC(F)(F)C3)c(-c2ccc(F)c(Cl)c2)c(=O)n(-c2cncc(Cl)c2)c1=O" — what was its CC50 at 72 h?
> 100 µM

* * *

Test system: SARS-CoV-2
assay_summary: Cytopathic effect (CPE) suppression test using HEK293T/ACE2-TMPRSS2 cells (Test Example 1)
Type: cell-based
measurement_setup: Severe acute respiratory syndrome coronavirus 2, HEK-293T, 72 h
Consider the following compounds; for each one, report its EC50.
The response must be a number in nM with no trailing unit.

Sample N#CCn1c(N2CC3(C2)CC(F)(F)C3)c(-c2ccc(F)c(Cl)c2)c(=O)n(-c2cncc(Cl)c2)c1=O [Compound I-1] — what was its EC50?
1.66

Sample [2H]c1cc(F)c(Cl)c([2H])c1-c1c(N2CC3(C2)CC(F)(F)C3)n(CC#N)c(=[18O])n(-c2cncc(Cl)c2)c1=[18O] [Compound I-2] — what was its EC50?
2.36

Reference source for all entries: patent EP4789671A1
